# Tested on: MIWI (PIWIL1) piRISC loaded with L1MC piRNA (30 nt);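 also: 1 nM active piRISC with 0.1 nM target library at 33 °C single turnover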
# assay.method.text: pre-steady-state target cleavage rate (min^-1); MIWI and MILI are mouse PIWI proteins and EfPiwi is from a freshwater sponge; tags in brackets are library labels; higher = faster piRNA-guided slicing of the target;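 also: 1 nM active piRISC with 0.1 nM target library at 33 °C single turnover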
# recorded.conditions: guide: L1MC piRNA 5'p-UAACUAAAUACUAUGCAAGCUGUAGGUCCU; auxiliary factor: none (no GTSF1)
Whole data set: some 8,200 sequences, median “pre-steady-state target cleavage rate” near 0.024, cut for the highest 2% near 1.3. What follows is part of a selection rich in the highest values, with near analogues and random picks from the rest.
Would you mind labelling by pre-steady-state target cleavage rate? At or over 0.05 is Fulfilled, under is Not fulfilled.

For orientation, consider the following solved cases.
- sequence.entry: "AGGACGAACAGCUUGCAUAGUAUUUACAAA"
  class.name: "Not fulfilled"
- sequence.entry: "UCGACGUACAGCUUGCAUAGUAUUUAGUAA"
  class.name: "Fulfilled"
- sequence.entry: "AGGACCUACAGCUUGAUAGUAUUUAGUUA"
  class.name: "Not fulfilled"
- sequence.entry: "UCGACGUACAGCUUGCAUAGUAUUUAGAAA"
  class.name: "Not fulfilled"
- sequence.entry: "UCCACCUAGAGCUUGCAUAGUUUUUAGUUA"
  class.name: "Not fulfilled"
- sequence.entry: "UGGACGUACAGCUUGCAUAGUUUUUAGUUA"
  class.name: "Not fulfilled"
- sequence.entry: "AGGACCUACAGCAUGCAUAGUAUUUACAAA"
  class.name: "Not fulfilled"
- sequence.entry: "AGGACCUACAGCUAGCAUAGUAAUUAGUUA"
  class.name: "Not fulfilled"

**Q:** For this sequence, is measured pre-steady-state target cleavage rate 0.05 or higher? UGCACGUACAGCUUGCAUAGUAUUUAGUUA
**A:** Fulfilled

**Q:** For this sequence, is measured pre-steady-state target cleavage rate 0.05 or higher? UCCACCUACAGCUUGCUUAGUAUUUAGUUA
**A:** Not fulfilled

**Q:** For this sequence, is measured pre-steady-state target cleavage rate 0.05 or higher? AGGACCUAGUCCUUGCAUAGUAUUUACAAA
**A:** Not fulfilled

**Q:** For this sequence, is measured pre-steady-state target cleavage rate 0.05 or higher? UCGACCUACAGCUUGAAUAGUAUUUAGUUA
**A:** Not fulfilled

**Q:** For this sequence, is measured pre-steady-state target cleavage rate 0.05 or higher? UCGACCACAGCUUGCAUAGUAUUUAGUUA
**A:** Fulfilled

**Q:** For this sequence, is measured pre-steady-state target cleavage rate 0.05 or higher? UGGACCUACAGCUUGAAUAGUAUUUAGUUA
**A:** Not fulfilled

**Q:** For this sequence, is measured pre-steady-state target cleavage rate 0.05 or higher? UCCUGGAUGAGCUUGCAUAGUAUUUAUUUA
**A:** Not fulfilled

**Q:** For this sequence, is measured pre-steady-state target cleavage rate 0.05 or higher? ACGACGUACAGCUUGCAUAGUAUUUAGUUA
**A:** Fulfilled

**Q:** For this sequence, is measured pre-steady-state target cleavage rate 0.05 or higher? UCCACGUACAGCUUGCAUAGUAUUUAGUAA
**A:** Not fulfilled

**Q:** For this sequence, is measured pre-steady-state target cleavage rate 0.05 or higher? UGGACCACAGCUUGCAUAGUAUUUAGUUA
**A:** Fulfilled

**Q:** For this sequence, is measured pre-steady-state target cleavage rate 0.05 or higher? UGGAGGAACAGCUUGCAUAGUAUUUAGAAA
**A:** Not fulfilled

**Q:** For this sequence, is measured pre-steady-state target cleavage rate 0.05 or higher? UCCACGUACAGCUUGCAUAGUAUUUAGUUA
**A:** Fulfilled

**Q:** For this sequence, is measured pre-steady-state target cleavage rate 0.05 or higher? AGGACCUACAGCUUGAAUAGUAUUUAGUUA
**A:** Fulfilled

**Q:** For this sequence, is measured pre-steady-state target cleavage rate 0.05 or higher? UCGACCCACAGCUUGCAUAGUAUUUAGUUA
**A:** Fulfilled

**Q:** For this sequence, is measured pre-steady-state target cleavage rate 0.05 or higher? UGGACGUACAGCUUGCAUAGUAUUUAGUUA
**A:** Fulfilled

**Q:** For this sequence, is measured pre-steady-state target cleavage rate 0.05 or higher? UCGACGUACAGCUUGCAUAGUAUUUAGUUA
**A:** Fulfilled

**Q:** For this sequence, is measured pre-steady-state target cleavage rate 0.05 or higher? AGGACCACAGCUUGCAUAGUAUUUAGUUA
**A:** Fulfilled

**Q:** For this sequence, is measured pre-steady-state target cleavage rate 0.05 or higher? UCCACCUACAGCUUGAAUAGUAUUUAGUUA
**A:** Not fulfilled

**Q:** For this sequence, is measured pre-steady-state target cleavage rate 0.05 or higher? UCGACCUACAGCUUGAUAGUAUUUAGUUA
**A:** Not fulfilled
